Target: UniProtKB P04156
Assay: biochemical
measurement kind: pEC50
pEC50 here is simply -log10 of the concentration when that concentration is written in mol/L.

Exercise: # input compound: Brc1cccc(-c2cc(-c3ccc4c(c3)OCO4)n[nH]2)c1 [anle138b] ; wanted: its pEC50
Key: 5.15

====

Test: physchem
Details: water
measurement kind: solubility

Exercise: # input compound: Brc1cccc(-c2cc(-c3ccc4c(c3)OCO4)n[nH]2)c1 [anle138b] ; wanted: its solubility
Key: < 1 µM

====

Examples of compounds with documented conc. brain follow.
Conditions: mouse, in vivo, po
Please give a number only; it is taken to be in nmol/g.

These recorded examples may help you get a feel for the data.
{"compound": "Brc1cccc(-c2c[nH]c(-c3ccc4c(c3)OCO4)n2)c1", "conc. brain / nmol/g": 16.6}
{"compound": "Clc1cccc(-c2cc(-c3ccc4c(c3)OCO4)n[nH]2)c1 [sery335b]", "conc. brain / nmol/g": 29.6}
{"compound": "CN(C)c1ccc(-c2cc(-c3cccc(Br)c3)n[nH]2)cc1 [anle253b]", "conc. brain / nmol/g": 2.1}

Exercise: # input compound: Brc1ccc(-c2cc(-c3ccc4c(c3)OCO4)n[nH]2)cc1 [sery378b] ; wanted: its conc. brain
Key: 26

Exercise: Do the same for FC(F)(F)c1cccc(-c2cc(-c3ccc4c(c3)OCO4)n[nH]2)c1 [anle236b] please
Key: 39.3

Exercise: Do the same for `Brc1cccc(-c2cc(-c3ccc4[nH]cnc4c3)n[nH]2)c1` please
Key: 0

Exercise: Do the same for Brc1cccc(-c2cc(-c3ccc4c(c3)OCO4)n[nH]2)c1 [anle138b] please
Key: 34.1

Exercise: Do the same for Brc1ccccc1-c1cc(-c2ccc3c(c2)OCO3)n[nH]1 [anle234b] please
Key: 32.1

Exercise: Do the same for Fc1cccc(-c2cc(-c3ccc4c(c3)OCO4)n[nH]2)c1 [anle186b] please
Key: 31.1
